Source listed as ChEMBL document CHEMBL4229370.

experiment: Plasma concentration in Sprague-Dawley rat at 10 mg/kg, po after 1 hrs
Type: ADME, organism-based
readout: concentration at 1 h (ng/mL)
Numbers only, in ng/mL.

List concentration at 1 h for every entry below, keeping the order given.
1. Cc1cccc(C)c1-n1c(Cn2nc(-c3ccc4[nH]ccc4c3)c3c(N)ncnc32)nc2cccc(F)c2c1=O
2. COc1ccc(-c2nn(Cc3nc4cccc(F)c4c(=O)n3-c3c(C)cccc3C)c3ncnc(N)c23)cc1OC

// result
[318, 318]

---

experiment: Plasma concentration in Sprague-Dawley rat at 1 mg/kg, iv after 8 hrs
Type: ADME, organism-based
Consider the following compounds; for each one, report its concentration at 8 h.
Answers are plain numbers, in ng/mL.

| smiles.input | concentration at 8 h (ng/mL) |
| --- | --- |
| COc1ccc(-c2nn(Cc3nc4cccc(F)c4c(=O)n3-c3c(C)cccc3C)c3ncnc(N)c23)cc1OC | 1.83 |

# next compound below
// query Give the measured concentration at 8 h of Cc1cccc(C)c1-n1c(Cn2nc(-c3ccc4[nH]ccc4c3)c3c(N)ncnc32)nc2cccc(F)c2c1=O .
// result 1.83

---

experiment: AUC (0 to infinity) in Sprague-Dawley rat at 1 mg/kg, iv
Assay type: ADME, organism-based
Design: dose 1 mg/kg, time infinity, route intravenous
condition.context: in vivo
readout: AUC(0-inf) (ng·h/mL)
One number for each entry, in ng·h/mL.

| smiles.input | measure.unit | AUC(0-inf) |
| --- | --- | --- |
| Cc1cccc(C)c1-n1c(Cn2nc(-c3ccc4[nH]ccc4c3)c3c(N)ncnc32)nc2cccc(F)c2c1=O | ng·h/mL | 473 |

// query Look up AUC(0-inf): COc1ccc(-c2nn(Cc3nc4cccc(F)c4c(=O)n3-c3c(C)cccc3C)c3ncnc(N)c23)cc1OC
// result 1020
